Species: Mus musculus
Assay: Selectivity ratio of Ki for cannabinoid CB1 receptor in CD1 mouse brain membranes to Ki for cannabinoid CB2 receptor in CD1 mouse spleen membranes
Assay type: cell membranes

{"columns": ["CHEM SMILES", "Ratio Ki"],
 "data": [
  ["CCCCCCC/C=C/C=C/C(=O)NCC(C)C", 2.89],
  ["CCCCC/C=C\\CC/C=C/C=C/C(=O)N1CCCCC1", 5],
  ["COc1cc([C@@H]2Oc3c(OC)cc(/C=C/C=O)cc3[C@H]2COC(=O)CC(C)C)ccc1O", 0.64],
  ["CC(C)CC(=O)OC/C=C\\CCNC(=O)/C=C/C=C/C=C/c1cccs1", 0.55],
  ["CCCCCCCCC/C=C/C=C/C(=O)NCC(C)C", 1.2],
  ["CC(C)CNC(=O)/C=C/C=C/C=C/c1cccs1", 1.07],
  ["O=C(/C=C/C=C/C=C/c1cccs1)N1CCCCC1", 3.3],
  ["CCCCCCCCC/C=C/C=C/C(=O)N1CCCCC1", 0.28],
  ["CC(C)CCNC(=O)/C=C/C=C/C=C/c1cccs1", 0.44],
  ["CCCCC/C=C\\CC/C=C/C=C/C(=O)NCC(C)C", 2.18]
]}

These entries and their values trace back to ChEMBL document CHEMBL2440099.
